Assay: Rat lung retention assay (intra-tracheal dosing, compound level in lung tissue)
Type: in vivo
Conditions: rat, in vivo, 0.1 mg/kg, [cmpd] ng/g
METRIC_NAME: concentration at 48 h
Please append the unit to your numeric answer.

Dear colleague, I am looking for the recorded concentration at 48 h of the following compound: CC(=O)N[C@@H]1C(N=C(N)N)C=C(C(=O)O)O[C@H]1[C@H](O)[C@H](O)CO (single isomer, unassigned) [Compound A, reference compound] 421 ng/g

----------
Experiment: Rat lung retention assay (intra-tracheal dosing, compound level in lung tissue)
Assay type: in vivo
Conditions: rat, in vivo, 0.1 mg/kg, Mean [cmpd] ng/g
This section presents molecules with their documented concentration at 168 h values.
Provide only the numeric value, understood in ng/g.

Observe how each entry below is paired with its result.
Could you tell me which concentration at 168 h is on file for CC(=O)N[C@@H]1C(N=C(N)N)C=C(C(=O)O)O[C@H]1[C@H](O)[C@H](O)CO (single isomer, unassigned) [Compound A, reference compound] ? 61

Item CC(=O)N[C@H]1[C@H]([C@H](OC(=O)NCCCCNC(=O)c2cccc(C(=O)NCCCCNC(=O)O[C@@H]([C@@H]3OC(C(=O)O)=C[C@H](NC(=N)N)[C@H]3NC(C)=O)[C@H](O)CO)c2)[C@H](O)CO)OC(C(=O)O)=C[C@@H]1NC(=N)N has what recorded concentration at 168 h? 372

// moving on: another record for concentration at 168 h
Looking for the measured concentration at 168 h of CC(=O)N[C@H]1[C@H]([C@H](OC(=O)NCCCCNS(=O)(=O)c2cccc(S(=O)(=O)NCCCCNC(=O)O[C@@H]([C@@H]3OC(C(=O)O)=C[C@H](NC(=N)N)[C@H]3NC(C)=O)[C@H](O)CO)c2)[C@H](O)CO)OC(C(=O)O)=C[C@@H]1NC(=N)N , can you help? 329
